Where these numbers come from: patent US20110105397A1

experiment: Nonclinical pharmacokinetics in rats; parameters: species or system rat; settings: female, in vivo; rat IV infusion 3 hours, F, 83.3 ng/kg/min; read-out: CL
propertyMeasured: clearance (mL/min/kg)
# unit: mL/min/kg | format: bare number

Please fill in: clearance reported for H-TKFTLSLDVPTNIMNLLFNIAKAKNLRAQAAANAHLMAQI-NH2 [SEQ ID NO: 1] = 107

====

For each of the substances below, state its EC50.
Target: human CRHR2 (Homo sapiens, UniProt Q13324)
Construct: expressed in transfected cells
Sequence (Q13324 1-411): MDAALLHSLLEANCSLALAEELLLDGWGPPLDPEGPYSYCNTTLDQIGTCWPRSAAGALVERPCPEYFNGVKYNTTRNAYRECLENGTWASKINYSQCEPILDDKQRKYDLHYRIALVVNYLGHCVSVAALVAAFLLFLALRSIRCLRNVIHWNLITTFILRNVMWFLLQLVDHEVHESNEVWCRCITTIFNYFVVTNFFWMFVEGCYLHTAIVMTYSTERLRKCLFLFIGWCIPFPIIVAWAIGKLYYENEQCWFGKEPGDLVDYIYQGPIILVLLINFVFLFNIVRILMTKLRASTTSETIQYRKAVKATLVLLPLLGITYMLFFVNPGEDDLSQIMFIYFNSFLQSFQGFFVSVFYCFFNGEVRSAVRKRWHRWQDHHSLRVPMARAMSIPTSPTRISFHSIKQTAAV
Assay: cAMP assay, h-CRHR2 transfected SK-N-MC cells
Assay type: cell-based
Conditions: Table 13; cysteine mutation, N-ethylmaleimide capping, pegylation; read-out: pA50 (converted)
Procedure: The concentration required for 50% maximum effect (A50) was 0.4 nM. Human CRHR1 (accession number X72304) or CRHR2 (accession number U34587) were cloned into pcDNA3.1/Zeo expression vector and stably transfected into SK—N-MC cells by electroporation. […] Media containing released intracellular cAMP was transferred to a 96-well flash plate coated with scintillant fluid containing an anti-cAMP antibody. […] [^125I]-cAMP was measured on a TopCount scintillation counter (Perkin Elmer, Mass., U.S.A). […]
Where no end group is shown, it is not given here.
Lab book: enter the figure in nM, no units written.

The reported EC50 of the substance H-TKFTLSLDVPTNIMNLLFNIAKAKNLRAQAAANCHLMAQI-NH2 [SEQ ID NO: 35] was 1.17

Entry TKFTLSLDVCTNIMNLLFNIAKAKNLRAQAAANAHLMAQI-NH2 [SEQ ID NO: 11] , EC50 reported as 1.74

The value of EC50 measured for the substance TKFTLSLDVPTNIMNLLFNIACAKNLRAQAAANAHLMAQI-NH2 [SEQ ID NO: 23] turned out to be 2.82

Item: H-TKFTLSLDVPTNIMNLLFNIAKAKNLRAQAACNAHLMAQI-NH2 [SEQ ID NO: 33] | EC50: 0.851

So, TKFTLSLDVPTNIMNLLFNCAKAKNLRAQAAANAHLMAQI-NH2 [SEQ ID NO: 21] ? Its EC50 was 1.78

====

experiment: Human pharmacokinetics, heart failure subjects, 7.5-hour continuous ascending dose IV infusion; settings: in vivo, read-out: Mean terminal half-life
propertyMeasured: half-life

half-life recorded for this substance, H-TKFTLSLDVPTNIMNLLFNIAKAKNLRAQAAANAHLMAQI-NH2 [SEQ ID NO: 1] , is 0.24 to 7.04 h

====

assay: Nonclinical pharmacokinetics in dogs; set-up: species or system dog; conditions: male, dog, in vivo, iv, 33.3 ng/kg/min, dog IV infusion 3 hours, M, 33.3 ng/kg/min; read-out: t1/2 terminal
propertyMeasured: half-life (h)
Write down the numeric answer in h and omit the unit.

Entry H-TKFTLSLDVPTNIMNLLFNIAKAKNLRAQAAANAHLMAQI-NH2 [SEQ ID NO: 1] ; half-life = 1.09

====

test: Human pharmacokinetics, heart failure subjects, 7.5-hour continuous ascending dose IV infusion; details: in vivo, infusion rate 18/36/45 ng/kg/min, median, N = 2
propertyMeasured: Tmax (h)
Numeric only. Scale: h

Tmax reading for H-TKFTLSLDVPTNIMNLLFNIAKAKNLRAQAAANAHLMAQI-NH2 [SEQ ID NO: 1] : 7.34

====

assay: Human pharmacokinetics, healthy subjects, 7.5-hour continuous ascending dose IV infusion; format: in vivo; conditions: human, in vivo, healthy subjects, infusion rate 54/72/108 ng/kg/min, mean, N = 2
propertyMeasured: AUC(0-inf) (ng·h/mL)
Report the figure in ng·h/mL without appending any unit label.

Sample H-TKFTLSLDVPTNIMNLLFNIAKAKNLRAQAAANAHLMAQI-NH2 [SEQ ID NO: 1] ; AUC(0-inf) observed: 95.5
